target: cynomolgus PD-L1 Fc-fusion protein (cynomolgus, UniProt G7PSE7 19-238); experiment: SPR, cyno PD-L1-Fc immobilised, antibody analyte
Sequence (G7PSE7 entry or part of it limits assumed): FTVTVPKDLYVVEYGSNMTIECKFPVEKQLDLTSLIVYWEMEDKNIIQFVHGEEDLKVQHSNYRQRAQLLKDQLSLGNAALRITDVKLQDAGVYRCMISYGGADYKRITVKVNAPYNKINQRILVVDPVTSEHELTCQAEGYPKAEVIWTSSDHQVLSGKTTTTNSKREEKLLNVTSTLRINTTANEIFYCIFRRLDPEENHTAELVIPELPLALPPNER
readout_kind: Kd (nM)
Supply the numeric figure in nM, leaving out any unit text.

Study these solved cases before continuing.
29A8_VH5-VL1.M1 (antibody, human IgG1, kappa, N297A, V domains shown, Humanized, hIgG1 effector-less Fc, kappa; see recheck on K24R in the .M1 light chain) VH: EVQLQESGPGLVKPSETLSLTCTVSGYSITSDFAWDWIRQPPGKGLEWIGHIRFSGTTSYNPSLKSRVTISRDTSKNQFSLKLSSVTAADTAVYYCARSTLITKGFFDYWGQGTLVTVSS VL: DIQMTQSPSSLSASVGDRVTITCRASQDVSPAVAWYQQKPGKAPKLLIYWASTRHTGVPSRFSGSGSGTDFTLTISSLQPEDFATYYCQQHYSTPWTFGQGTKVEIKR | 0.98
53C1_VH3-VL1.M1 (antibody, human IgG1, kappa, N297A, V domains shown, Humanized, hIgG1 effector-less Fc, kappa; see recheck on K24R in the .M1 light chain) VH: EVQLVQSGAEVKKPGASVKLSCKASGYIFTGYGITWVRQAPGQGLEWIGEIFPRRVNTYYSEKFKGRATLTADTSTSTAYMELRSLRSDDTAVYFCARDYDPYFALDYWGQGTTVTVSS VL: DIQMTQSPSSLSASVGDRVTITCRASQDVSTAVDWYQQKPGKAPKLLIYSASYRYTGVPDRFSGSGSGTDFTFTISSLQPEDIATYYCQQHYSIPFTFGQGTKLEIKR | 0.71
53C1_chimeric (antibody, human IgG1, kappa, N297A, V domains shown, Human IgG1 with effector-less Fc mutations, human kappa; also called chimeric 53C1F3D4) VH: QVQLQQSGNELARPGASVRLSCKASGYIFTGYGITWVRQRPGQGLEWIGEIFPRRVNTYYSEKFKGRATLTADISSSTAYMELRSLTSEDSAVYFCARDYDPYFALDYWGQGTSVTVSS VL: DIVMTQSHKFMSTSVGDRVSITCKASQDVSTAVDWYQQKPGQSPKLLIYSASYRYTGVPDRFTGSGSGTAFTFTISGEQAEDLAVYYCQQHYSIPFTFGGGTKLEIKR | 1.1

Next, consider the following binder.
Form: binder = 29A8_chimeric (antibody, human IgG1, kappa, N297A, V domains shown, Human IgG1 with effector-less Fc mutations, human kappa; also called chimeric 29A8H8C7) VH: DVQLQGSGPGLVKPSQSLSLTCTVTGYSITSDFAWDWIRQFPGNKLEWMGHIRFSGTTSYNPSLKSRISITRDTSKNQFFLQLNSVTSEDTATYYCARSTLITKGFFDYWGQGTTLTVSS VL: DIVMTQSHKFMSTSVGGRVSITCKASQDVSPAVAWYQQKPGQSPKLLIYWASTRHTGVPDRFTGSGSGTDFTLTISSVQTEDLALYYCQQHYSTPWTFGGGTKLEIKR ; Kd = 0.48
